test_details: Estimated solubility by solvent addition method via visual assessment
Type: physicochemical
details: organic solvent or mixture, thermodynamic from solid; 2-Me THF, room temperature; read-out: Solubility
experimental_endpoint: solubility

query: Param item = Cc1n[nH]c2nc(-c3ccc(NS(=O)(=O)c4cc(F)ccc4F)c(F)c3)nc(NCCN(C)C)c12 [Compound 4 Form B] ; retrieve measured solubility.
result: < 1500 µg/mL

====

test_details: pKa values and protonation state of Compound 1
Format: physicochemical
details: first of four pKa values
experimental_endpoint: pKa
Respond with the number and no other words.

query: Would you kindly share the measured pKa for Cc1n[nH]c2nc(-c3ccc(NS(=O)(=O)c4cc(F)ccc4F)c(F)c3)nc(NCCN(C)C)c12 ?
result: 2.7

====

test_details: Estimated solubility by solvent addition method via visual assessment
Assay type: physicochemical
details: organic solvent or mixture, thermodynamic from solid; DMF, RT; read-out: Solubility, Concentration
experimental_endpoint: solubility

query: What does the data say about its solubility? Entry: Cc1n[nH]c2nc(-c3ccc(NS(=O)(=O)c4cc(F)ccc4F)c(F)c3)nc(NCCN(C)C)c12.Cl [Compound 3 Form B]
result: 2000 to 3000 µg/mL

====

test_details: Estimated solubility by solvent addition method via visual assessment
Assay type: physicochemical
details: organic solvent or mixture, thermodynamic from solid; THF/Water (9/1), RT; read-out: Solubility, Concentration
experimental_endpoint: solubility

query: Report solubility for Cc1n[nH]c2nc(-c3ccc(NS(=O)(=O)c4cc(F)ccc4F)c(F)c3)nc(NCCN(C)C)c12.Cl [Compound 3 Form B] please.
result: 1600 to 1900 µg/mL

====

test_details: Estimated solubility by solvent addition method via visual assessment
Assay type: physicochemical
details: organic solvent or mixture, thermodynamic from solid; n-Heptane, RT; read-out: Solubility, Concentration
experimental_endpoint: solubility

query: Using the record for Cc1n[nH]c2nc(-c3ccc(NS(=O)(=O)c4cc(F)ccc4F)c(F)c3)nc(NCCN(C)C)c12.Cl [Compound 3 Form B] , report its solubility.
result: < 1500 µg/mL

====

test_details: Solubility estimates by aliquot addition method in various solvents
Assay type: physicochemical
details: water, thermodynamic from solid; read-out: Solubility at RT
experimental_endpoint: solubility

query: Quick check: solubility of Cc1n[nH]c2nc(-c3ccc(NS(=O)(=O)c4cc(F)ccc4F)c(F)c3)nc(NCCN(C)C)c12 ?
result: < 2000 µg/mL

====

test_details: Estimated solubility by solvent addition method via visual assessment
Format: physicochemical
details: organic solvent or mixture, thermodynamic from solid; DCM, room temperature; read-out: Solubility
experimental_endpoint: solubility

query: Sample Cc1n[nH]c2nc(-c3ccc(NS(=O)(=O)c4cc(F)ccc4F)c(F)c3)nc(NCCN(C)C)c12 [Compound 4 Form B] — what was its solubility?
result: < 1500 µg/mL

====

test_details: Estimated solubility by solvent addition method via visual assessment
Type: physicochemical
details: organic solvent or mixture, thermodynamic from solid; IPE, RT; read-out: Solubility, Concentration
experimental_endpoint: solubility

query: I have this compound here, Cc1n[nH]c2nc(-c3ccc(NS(=O)(=O)c4cc(F)ccc4F)c(F)c3)nc(NCCN(C)C)c12.Cl [Compound 3 Form B] , and I need its recorded solubility.
result: < 1500 µg/mL

====

test_details: Estimated solubility by solvent addition method via visual assessment
Assay type: physicochemical
details: organic solvent or mixture, thermodynamic from solid; IPA, room temperature; read-out: Solubility
experimental_endpoint: solubility

query: Which solubility is reported for this molecule? Cc1n[nH]c2nc(-c3ccc(NS(=O)(=O)c4cc(F)ccc4F)c(F)c3)nc(NCCN(C)C)c12 [Compound 4 Form B]
result: < 1500 µg/mL

====

test_details: Solubility estimates by aliquot addition method in various solvents
Type: physicochemical
details: MeOH, organic solvent or mixture, thermodynamic from solid; read-out: Solubility at RT
experimental_endpoint: solubility

query: Quick check: solubility of Cc1n[nH]c2nc(-c3ccc(NS(=O)(=O)c4cc(F)ccc4F)c(F)c3)nc(NCCN(C)C)c12 [Compound 1] ?
result: < 1000 µg/mL

====

test_details: pKa values and protonation state of Compound 1
Assay type: physicochemical
details: fourth of four pKa values
experimental_endpoint: pKa
API note: the answer field is a bare number with no unit suffix.

query: Can you share its pKa? I mean this compound: Cc1n[nH]c2nc(-c3ccc(NS(=O)(=O)c4cc(F)ccc4F)c(F)c3)nc(NCCN(C)C)c12 [Compound 1]
result: 11.8

====

test_details: pKa values and protonation state of Compound 1
Format: physicochemical
details: third of four pKa values
experimental_endpoint: pKa

query: # get_value(readout='pKa', item= Cc1n[nH]c2nc(-c3ccc(NS(=O)(=O)c4cc(F)ccc4F)c(F)c3)nc(NCCN(C)C)c12 )
result: 8.85

====

test_details: Dynamic vapor sorption/desorption (DVS) with post-DVS XRPD
Assay type: physicochemical
Experimental: Moisture sorption/desorption data were collected on a DVS Intrinsic. 7-20 mg of a sample was placed into a tared sample chamber and automatically weighed. The anhydrates were analyzed with the following setting parameters: DVS experiments (FIGS. 17, 19, 21, 34, 35, 48 and 50) and XRPD post-DVS experiments (FIGS. 18, 20, 22, 36, 49 and 51) were conducted in order to study the deliquescence behaviour of the crystalline salts upon expose to humidity.

compound | hygroscopicity
Cc1n[nH]c2nc(-c3ccc(NS(=O)(=O)c4cc(F)ccc4F)c(F)c3)nc(NCCN(C)C)c12 [Compound 4 Form A] | hygroscopic
Cc1n[nH]c2nc(-c3ccc(NS(=O)(=O)c4cc(F)ccc4F)c(F)c3)nc(NCCN(C)C)c12 [Compound 4 Form D] | slightly hygroscopic
Cc1n[nH]c2nc(-c3ccc(NS(=O)(=O)c4cc(F)ccc4F)c(F)c3)nc(NCCN(C)C)c12.Cl [Compound 3 Form D] | slightly hygroscopic
Cc1n[nH]c2nc(-c3ccc(NS(=O)(=O)c4cc(F)ccc4F)c(F)c3)nc(NCCN(C)C)c12 [Compound 4 Form B] | hygroscopic

====

test_details: Estimated solubility by solvent addition method via visual assessment
Type: physicochemical
details: organic solvent or mixture, thermodynamic from solid; Acetic acid, RT; read-out: Solubility, Concentration
experimental_endpoint: solubility

query: Data request, read-out solubility, for Cc1n[nH]c2nc(-c3ccc(NS(=O)(=O)c4cc(F)ccc4F)c(F)c3)nc(NCCN(C)C)c12.Cl [Compound 3 Form B]
result: < 1500 µg/mL

====

test_details: Estimated solubility by solvent addition method via visual assessment
Type: physicochemical
details: organic solvent or mixture, thermodynamic from solid; DMF, 70° C.; read-out: Solubility, Concentration
Procedure: Solubility of Compound 3 Form B was estimated in 30 solvents at room temperature and in 9 organic solvents at 70° C. using solvent addition method via visual assessment. Protocol: about 3 mg of Compound 3 Form B was weighed into a sample vial and the solvent was added gradually with vortex until the drug solution was clear by observation or a total of 2 mL solvent was added. Then, the estimated solubility (mg/mL) was calculated. […]
experimental_endpoint: solubility

query: Give its solubility value. Item: Cc1n[nH]c2nc(-c3ccc(NS(=O)(=O)c4cc(F)ccc4F)c(F)c3)nc(NCCN(C)C)c12.Cl [Compound 3 Form B]
result: 16.7 to 20 mg/mL

====

test_details: Estimated solubility by solvent addition method via visual assessment
Format: physicochemical
details: organic solvent or mixture, thermodynamic from solid; Acetone/MeOH (1/1), RT; read-out: Solubility, Concentration
experimental_endpoint: solubility

query: What value of measured solubility is listed for Cc1n[nH]c2nc(-c3ccc(NS(=O)(=O)c4cc(F)ccc4F)c(F)c3)nc(NCCN(C)C)c12.Cl [Compound 3 Form B] ?
result: 1500 to 1600 µg/mL

====

test_details: Estimated solubility by solvent addition method via visual assessment
Assay type: physicochemical
details: organic solvent or mixture, thermodynamic from solid; Benzyl alcohol, RT; read-out: Solubility, Concentration
experimental_endpoint: solubility

query: Looking for the measured solubility of Cc1n[nH]c2nc(-c3ccc(NS(=O)(=O)c4cc(F)ccc4F)c(F)c3)nc(NCCN(C)C)c12.Cl [Compound 3 Form B] , can you help?
result: < 1500 µg/mL

====

test_details: Estimated solubility by solvent addition method via visual assessment
Assay type: physicochemical
details: organic solvent or mixture, thermodynamic from solid; THF, RT; read-out: Solubility, Concentration
Method: Solubility of Compound 3 Form B was estimated in 30 solvents at room temperature and in 9 organic solvents at 70° C. using solvent addition method via visual assessment. Protocol: about 3 mg of Compound 3 Form B was weighed into a sample vial and the solvent was added gradually with vortex until the drug solution was clear by observation or a total of 2 mL solvent was added. Then, the estimated solubility (mg/mL) was calculated. […]
experimental_endpoint: solubility

query: # lookup: solubility of Cc1n[nH]c2nc(-c3ccc(NS(=O)(=O)c4cc(F)ccc4F)c(F)c3)nc(NCCN(C)C)c12.Cl [Compound 3 Form B]
result: < 1500 µg/mL

====

test_details: Solubility estimates by aliquot addition method in various solvents
Format: physicochemical
details: water, 50 °C, water, thermodynamic from solid; read-out: Solubility at 50° C.
experimental_endpoint: solubility

query: Would you mind telling me what solubility value was observed for Cc1n[nH]c2nc(-c3ccc(NS(=O)(=O)c4cc(F)ccc4F)c(F)c3)nc(NCCN(C)C)c12 [Compound 1] ?
result: < 2000 µg/mL

Cited source: patent US20250320215A1
